glycan array binding signal (z-score) for assorted binders
biological target: Neu5Ac(a2-3)[GalNAc(b1-4)]Gal(b1-4)Glc; assay: glycan array binding signal (z-score within array); higher = stronger binding; conditions: glycan notation: IUPAC condensed, linker removed
About 410 targets per protein were measured; listed, in parts, are those with the strongest signals and a random draw of the rest.
ASSAY ENDPOINT: glycan array binding signal (z-score)

BINDER: CTMLA2 (Anopheles gambiae), Q7Q7F8 (protein) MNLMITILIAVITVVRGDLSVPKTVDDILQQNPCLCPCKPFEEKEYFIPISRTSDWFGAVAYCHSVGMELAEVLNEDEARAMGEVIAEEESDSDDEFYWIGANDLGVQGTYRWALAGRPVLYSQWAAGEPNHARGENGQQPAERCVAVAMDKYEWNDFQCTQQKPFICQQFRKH
MEASURED: -0.435

BINDER: ABA (Agaricus bisporus), Q00022 (protein) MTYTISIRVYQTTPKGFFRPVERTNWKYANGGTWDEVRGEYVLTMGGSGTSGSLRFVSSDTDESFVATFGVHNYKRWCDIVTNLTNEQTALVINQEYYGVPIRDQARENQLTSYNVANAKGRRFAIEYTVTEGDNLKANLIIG
MEASURED: -0.249

BINDER: LCA (Lens culinaris), P02870 (protein) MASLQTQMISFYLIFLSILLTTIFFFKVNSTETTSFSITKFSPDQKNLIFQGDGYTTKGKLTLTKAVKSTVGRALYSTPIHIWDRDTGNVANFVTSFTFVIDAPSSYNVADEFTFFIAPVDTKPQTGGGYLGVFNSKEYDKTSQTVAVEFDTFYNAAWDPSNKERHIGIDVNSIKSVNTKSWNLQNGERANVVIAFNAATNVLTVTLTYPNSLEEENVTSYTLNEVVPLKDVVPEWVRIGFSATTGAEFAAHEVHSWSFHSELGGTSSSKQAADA
MEASURED: -0.235

BINDER: ArathEULS3 TAP (Arabidopsis thaliana) (protein) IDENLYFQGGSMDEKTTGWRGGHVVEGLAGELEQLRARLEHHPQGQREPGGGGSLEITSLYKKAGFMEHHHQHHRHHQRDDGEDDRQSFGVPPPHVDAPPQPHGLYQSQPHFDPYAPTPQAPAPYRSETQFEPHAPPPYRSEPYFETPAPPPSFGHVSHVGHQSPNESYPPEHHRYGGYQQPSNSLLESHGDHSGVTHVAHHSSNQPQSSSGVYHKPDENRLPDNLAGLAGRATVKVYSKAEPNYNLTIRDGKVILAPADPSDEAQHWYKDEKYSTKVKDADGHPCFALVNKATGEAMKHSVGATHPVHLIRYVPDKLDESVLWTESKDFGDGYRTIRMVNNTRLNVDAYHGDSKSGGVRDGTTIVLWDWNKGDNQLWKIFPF
MEASURED: 0.447

BINDER: LEA (Lycopersicon esculentum) (protein) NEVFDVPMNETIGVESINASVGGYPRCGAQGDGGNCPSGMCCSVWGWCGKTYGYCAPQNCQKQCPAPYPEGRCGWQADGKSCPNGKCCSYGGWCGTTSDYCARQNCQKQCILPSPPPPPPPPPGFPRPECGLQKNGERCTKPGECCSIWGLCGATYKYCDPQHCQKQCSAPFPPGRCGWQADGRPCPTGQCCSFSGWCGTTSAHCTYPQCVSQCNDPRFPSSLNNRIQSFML
MEASURED: -0.536

Origin of values: the supplement of paper PMC8728848
